ASSAY_TARGET: T1, huFLT3-M227 stably expressed on Ramos cells (human, UniProt P36888 27-993)
T1 construct: whole, on cells; also called FLT3 Mutant
T1 sequence (P36888 27-993 T227M): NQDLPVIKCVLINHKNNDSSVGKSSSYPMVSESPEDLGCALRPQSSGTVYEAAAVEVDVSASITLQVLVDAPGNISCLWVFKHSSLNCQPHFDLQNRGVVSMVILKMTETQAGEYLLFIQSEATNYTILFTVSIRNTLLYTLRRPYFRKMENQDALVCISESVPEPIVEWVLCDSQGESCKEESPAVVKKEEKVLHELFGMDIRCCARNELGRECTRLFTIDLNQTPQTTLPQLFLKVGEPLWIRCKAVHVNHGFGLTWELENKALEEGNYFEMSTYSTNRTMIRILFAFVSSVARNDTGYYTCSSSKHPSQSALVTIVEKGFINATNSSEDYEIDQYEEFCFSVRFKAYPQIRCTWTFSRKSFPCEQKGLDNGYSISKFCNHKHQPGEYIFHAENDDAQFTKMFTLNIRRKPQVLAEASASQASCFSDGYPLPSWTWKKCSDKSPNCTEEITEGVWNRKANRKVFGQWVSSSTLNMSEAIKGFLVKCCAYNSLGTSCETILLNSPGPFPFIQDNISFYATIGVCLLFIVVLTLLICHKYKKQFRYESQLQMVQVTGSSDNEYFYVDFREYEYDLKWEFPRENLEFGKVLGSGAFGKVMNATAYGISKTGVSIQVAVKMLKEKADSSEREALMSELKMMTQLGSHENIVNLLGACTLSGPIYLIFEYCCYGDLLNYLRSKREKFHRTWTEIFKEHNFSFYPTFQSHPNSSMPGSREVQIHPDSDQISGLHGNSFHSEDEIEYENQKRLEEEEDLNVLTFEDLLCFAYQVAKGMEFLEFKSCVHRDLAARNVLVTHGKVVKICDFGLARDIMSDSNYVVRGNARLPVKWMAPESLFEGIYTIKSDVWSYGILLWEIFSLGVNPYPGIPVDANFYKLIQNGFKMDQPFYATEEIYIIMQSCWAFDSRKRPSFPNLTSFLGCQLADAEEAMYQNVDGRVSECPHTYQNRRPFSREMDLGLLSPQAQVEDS
EXPERIMENT_SUMMARY: FACS on cells
RESULT_TYPE: FACS geometric mean fold change over Jurkat parental

>  <BINDER>
Polypeptide No. 223 (scFv, V domains shown, scFv) VH: QVQLVQSGAEVKKPGASVKVSCKASGYTFTNSFIHWVRQAPGQGLEWMGIINPSGGSTSYAQKFQGRVTMTRDTSTSTVYMELSSLRSEDTAVYYCAKALERRYYYGMDVWGQGTTVTVSS VL: DIQMTQSPSSLSASVGDRVTITCRASQGISNYLAWYQQKPGKAPKLLIYDGSNLETGVPSRFSGSGSGTDFTLTISSLQPEDFATYYCQQSYSTPLTFGQGTKVEIKR

>  <READING>
> 30 fold

$$$$
>  <BINDER>
Polypeptide No. 218 (scFv, V domains shown, scFv) VH: QVQLVQSGAEVKKPGASVKVSCKASGYSFTTHYMHWVRQAPGQGLEWMGIINPSGGSTRYAQKFQGRVTMTRDTSTSTVYMELSSLRSEDTAVYYCARGSSYYYYGVDVWGKGTTVTVSS VL: DIQMTQSPSSLSASVGDRVTITCRASQSISTWLAWYQQKPGKAPKLLIYAASSLQSGVPSRFSGSGSGTDFTLTISSLQPEDFATYYCQQAISFPLTFGGGTKVEIKR

>  <READING>
10 to 30 fold

$$$$
>  <BINDER>
Polypeptide No. 263 (scFv, V domains shown, scFv) VH: QVQLVQSGAEVKKPGSSVKVSCKASGGTFSSYAISWVRQAPGQGLEWMGGIIPIVGVANYAQKLQGRVTITADESTSTAYMELSSLRSEDTAVYYCAKDIGGYPSDAFDIWGQGTTVTVSS VL: EIVMTQSPATLSVSPGERATLSCRASQSVSSSYLAWYQQKPGQAPRLLIYDVSTRATGIPARFSGSGSGTEFTLTISSLQSEDFAVYYCQQYGSSPITFGQGTKVEIKR

>  <READING>
2 to 10 fold

$$$$
>  <BINDER>
Polypeptide No. 248 (scFv, V domains shown, scFv) VH: QVQLVQSGAEVKKPGASVKVSCKASGYTFTGYYMHWVRQAPGQGLEWMGVINPNGGSISYAQKFQGRVTMTRDTSTSTVYMELSSLRSEDTAVYYCAREGWFGEDGMDVWGQGTTVTVSS VL: DIQMTQSPSSLSASVGDRVTITCRASQDLDRYLAWYQQKPGKAPKLLIYAASSLQTGVPSRFSGSGSGTDFTLTISSLQPEDFATYYCQQYYSTPYTFGQGTKLEIKR

>  <READING>
2 to 10 fold

$$$$
>  <BINDER>
Polypeptide No. 243 (scFv, V domains shown, scFv) VH: QVQLVQSGAEVKKPGSSVKVSCKASGGTFSSHAFNWVRQAPGQGLEWMGGISPMFGTPNYAQKFQGRVTITADESTSTAYMELSSLRSEDTAVYYCARAPDYGDDWYFDLWGRGTLVTVSS VL: EIVMTQSPATLSVSPGERATLSCRASQTLTGGLLAWYQQKPGQAPRLLIYDTSSRAAGIPARFSGSGSGTEFTLTISSLQSEDFAVYYCHHYGSSPYTFGQGTKVEIKR

>  <READING>
2 to 10 fold

$$$$
>  <BINDER>
Polypeptide No. 233 (scFv, V domains shown, scFv) VH: QVQLVQSGAEVKKPGASVKVSCKASGYTFTSYYLHWVRQAPGQGLEWIGVINPSGGSTTYAQRFQGRVTMTRDTSTSTVYMELSSLRSEDTAVYYCARGIGYGGYFDYWGQGTLVTVSS VL: DIVMTQSPLSLPVTPGEPASISCRSSQSLLHSNGYNYLDWYLQKPGQSPQLLIYAASSLQSGVPDRFSGSGSGTDFTLKISRVEAEDVGVYYCMQGLRTPHTFGGGTKVEIKR

>  <READING>
> 30 fold

$$$$
>  <BINDER>
Polypeptide No. 284 (scFv, V domains shown, scFv) VH: QVQLVQSGAEVKKPGASVKVSCKASGYTFTSYYMHWVRQAPGQGLEWMGVINPSGGSTTYAQKFQGRVTMTRDTSTSTVYMELSSLRSEDTAVYYCARVPGVSPGDYGMDVWGQGTTVTVSS VL: DIQMTQSPSSLSASVGDRVTITCRASHNISTWLAWYQQKPGKAPKLLIYAASSLQSGVPSRFSGSGSGTDFTLTISSLQPEDFATYYCQQSYSTPPTFGQGTRLEIKR

>  <READING>
> 30 fold

$$$$
>  <BINDER>
Polypeptide No. 254 (scFv, V domains shown, scFv) VH: QVQLVQSGAEVKKPGASVKVSCKASGYTFTSHYMHWVRQAPGQGLEWMGWISPYNGNTNYAQKLQGRVTMTRDTSTSTVYMELSSLRSEDTAVYYCARGESNSGWINFDYWGQGTLVTVSS VL: EIVMTQSPATLSVSPGERATLSCRASQSVSSSSLAWYQQKPGQAPRLLIYDTSTRATGIPARFSGSGSGTEFTLTISSLQSEDFAVYYCQQYGTSPITFGQGTRLEIKR

>  <READING>
2 to 10 fold

$$$$
>  <BINDER>
Polypeptide No. 292 (scFv, V domains shown, scFv) VH: QVQLVQSGAEVKKPGASVKVSCKASGYTFTSYGISWVRQAPGQGLEWMGWINPNSGGTNYAQKFQGRVTMTRDTSTSTVYMELSSLRSEDTAVYYCARQGGLRDFDYWGQGTLVTVSS VL: DIQMTQSPSSLSASVGDRVTITCRASQSISTYVNWYQQKPGKAPKLLIYDTSSLQSGVPSRFSGSGSGTDFTLTISSLQPEDFATYYCQQSFITPPTFGQGTKLEIKR

>  <READING>
2 to 10 fold

$$$$
>  <BINDER>
Polypeptide No. 212 (scFv, V domains shown, scFv) VH: QVQLVQSGAEVKKPGSSVKVSCKASGYTFTGYYMHWVRQAPGQGLEWMGGIIPILGTANNAQKFQGRVTITADESTSTAYMELSSLRSEDTAVYYCARAPWGTFDYWGQGTLVTVSS VL: EIVMTQSPATLSVSPGERATLSCRASQSVSSSQLAWYQQKPGQAPRLLIYDTSTRATGIPARFSGSGSGTEFTLTISSLQSEDFAVYYCQQYDNSLWTFGQGTRLEIKR

>  <READING>
10 to 30 fold

$$$$

Challenge: Bench note: what FACS geometric mean fold change over Jurkat parental did Polypeptide No. 228 (scFv, V domains shown, scFv) VH: QVQLVQSGAEVKKPGASVKVSCKASGGTFSSHAISWVRQAPGQGLEWMGWINPGSGGTNYAQKFQGRVTMTRDTSTSTVYMELSSLRSEDTAVYYCAKDSYDFWSGYYIDYWGQGTLVTVSS VL: DIQMTQSPSSLSASVGDRVTITCRASQSIYTHLNWYQQKPGKAPKLLIYAASRLQTGVPSRFSGSGSGTDFTLTISSLQPEDFATYYCQQSYSFPFTFGPGTKVDIKR show?
Response given: > 30 fold
